test system: RAW-Dual; experiment: NF-kB SEAP reporter activity, fold change vs agonist alone; higher = enhanced NF-kB activity; conditions: library stock concentration (final ~1000-fold dilution): 10 mM; cytotoxicity flag (confluency mask): not cytotoxic; agonist: MPLA (TLR4) […]
In all, about 2,900 compounds were measured (“NF-kB SEAP reporter activity, fold change vs agonist alone”: median about 0.99, highest 2% from about 2.6 on). Many of the other results were omitted from the sample, so the highest values are more common in it than they were.
Entries annotated with measured NF-kB SEAP reporter activity
Write the value as a bare number.

Worked examples follow.
COc1cc(OC)cc(-c2cc3cnc(N)nc3nc2NC(=O)NC(C)(C)C)c1	1.1
C=CC(=O)NC1CCOCC1Nc1ncc2cc(-c3c(Cl)c(OC)cc(OC)c3Cl)ccc2n1 (configuration not stated)	0.869
CCOC(=O)Nc1ccc(NCc2ccc(F)cc2)nc1N.O=C(O)/C=C/C(=O)O	1.23
COC12C(COC(N)=O)C3=C(C(=O)C(C)=C(N)C3=O)N1CC1NC12 (configuration not stated)	1.79
O=C(/C=C/c1cccnc1)NCCCCC1CCN(C(=O)c2ccccc2)CC1	0.719
O=c1cc(-c2ccccc2)oc2c1ccc1ccccc12	1.2

// query Recall the recorded NF-kB SEAP reporter activity for "Nc1ccc(F)cc1NC(=O)c1ccc(CNC(=O)/C=C/c2cccnc2)cc1" with RAW-Dual and state it.
// result 1.89

// query # repeat for "C=CC(=O)N1CCN(CCCn2c(=O)c(-c3c(Cl)c(OC)cc(OC)c3Cl)cc3cnc(NC)nc32)CC1"
// result 1.23

// query # repeat for C=C1CCCC2(C)C=C3OC(=O)C(C)=C3CC12 (configuration not stated)
// result 1.14
